The reader will find reported pIC50 values listed item by item below.
molecular target: native human Bradykinin B1 receptor (Homo sapiens, UniProt P46663); construct: which express native human Bradykinin B1 receptor after induction with human IL-10; Coriell Institute; experiment: Calcium flux Assay (FLIPR) with human fibroblasts expressing Bradykinin B1 receptor (hB1 IMR-90); details: IMR-90 human fibroblasts expressing native Bradykinin B1 receptor
Sequence (P46663 whole entry): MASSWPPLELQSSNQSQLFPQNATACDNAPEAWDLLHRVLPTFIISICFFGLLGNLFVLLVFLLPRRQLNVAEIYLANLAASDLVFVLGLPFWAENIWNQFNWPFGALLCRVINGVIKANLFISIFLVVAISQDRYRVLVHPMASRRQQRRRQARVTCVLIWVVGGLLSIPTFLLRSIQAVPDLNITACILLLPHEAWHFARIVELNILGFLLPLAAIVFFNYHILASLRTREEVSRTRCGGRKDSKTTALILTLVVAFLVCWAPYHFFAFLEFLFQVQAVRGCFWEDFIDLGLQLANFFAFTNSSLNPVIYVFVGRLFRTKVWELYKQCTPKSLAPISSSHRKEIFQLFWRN
Expect pIC50 as a plain number equal to -log10 of the molar concentration.

Some compounds with recorded pIC50:
>  <structure_as_smiles>
O=C(Nc1ccc(-c2ccc(C(F)(F)F)nc2)c(-c2nnn[nH]2)c1)C1(c2cc(F)ccc2F)CC1

>  <test_value>
6.85

$$$$
>  <structure_as_smiles>
O=C(Nc1ccc(-c2ccc(C(F)(F)F)nc2)c(-c2nnn[nH]2)c1)C1(c2ccc(Cl)cc2)CC1

>  <test_value>
7.44

$$$$
>  <structure_as_smiles>
CC(C)Oc1ccc(-c2ccc(NC(=O)C3(c4cccc(Cl)c4)CC3)cc2-c2nnn[nH]2)cn1

>  <test_value>
7.73

$$$$
>  <structure_as_smiles>
CCOc1ccc(-c2ccc(NC(=O)C3(c4ccc(C(F)(F)F)cc4F)CC3)cc2-c2nnn[nH]2)cn1

>  <test_value>
8.24

$$$$
>  <structure_as_smiles>
CCOc1ccc(-c2c(F)cc(NC(=O)C3(c4cccc(Cl)c4)CC3)cc2-c2nnn[nH]2)cn1

>  <test_value>
7.81

$$$$

Bench note: what pIC50 did O=C(Nc1ccc(-c2ccc(C(F)(F)F)cc2)c(-c2nnn[nH]2)c1)C1(c2cccc(Cl)c2)CC1 show?
7.20

Bench note: what pIC50 did COc1ccc(-c2ccc(NC(=O)C3(c4cccc(Cl)c4)CC3)cc2-c2nnn[nH]2)cc1OC show?
7.85

Bench note: what pIC50 did O=C(Nc1cc(F)c(-c2ccnc(C(F)(F)F)c2)c(-c2nnn[nH]2)c1)C1(c2ccc(C(F)(F)F)cc2F)CC1 show?
7.32
